# cell viability per record follows
Tested on: NOMO1
assay.text: cell viability relative to DMSO control; higher = less cytotoxic
run.parameters: RPMI 5 mM glucose + 10% FBS; 48 h; 0.00234 µM
Write the number in % without appending the unit.

Ask: What value of measured cell viability is listed for CCC1(c2ccc(N)cc2)CCC(=O)NC1=O (stereo not drawn) ?
Result: 107

Ask: Item: CC(=O)Nc1ccc([C@H](C)C(=O)Nc2ncc(C(C)C)s2)cc1
Result: 99.9

Ask: Item: CC(C)(C)c1cc(C=C(C#N)C#N)cc(Br)c1O
Result: 115

Ask: Item: CC(C)(C)C(=O)Oc1ccc([S+](=O)([O-])Nc2ccccc2C(=O)NCC(=O)O)cc1
Result: 102

Ask: Item: c1cc(CN2CCCNCCNCCCNCC2)ccc1CN1CCCNCCNCCCNCC1
Result: 85.8

----------
Tested on: NOMO1
assay.text: cell viability relative to DMSO control; higher = less cytotoxic
run.parameters: RPMI 5 mM glucose + 10% dialyzed FBS; 48 h; 46.1 µM
# cell viability per record follows
Write the number in % without appending the unit.

Study these solved cases before continuing.
[[record]]
compound = "C[C@@]12O[C@@H](C[C@]1(O)CO)n1c3ccccc3c3c4c(c5c6ccccc6n2c5c31)CNC4=O"
val = 4.47

[[record]]
compound = "Cc1nccn1CC1CCc2c(c3ccccc3n2C)C1=O (stereo not drawn)"
val = 104

[[record]]
compound = "COc1cc2c(Nc3ccc(Cl)c(Cl)c3F)ncnc2cc1OC[C@@H]1C[C@@H]2CN(C)C[C@@H]2C1"
val = 24.3

[[record]]
compound = "C[S+](=O)([O-])N(Cc1ccco1)CC(O)Cn1c2ccccc2c2ccccc21 (stereo not drawn)"
val = 50.8

[[record]]
compound = "CC(=O)CC(C1=CC=CC=C1)C/2=C(O)/C3=CC=CC=C3OC2=O (stereo not drawn)"
val = 129

[[record]]
compound = "COc1cc2c(Oc3ccc(NC(=O)C4(C(=O)Nc5ccc(F)cc5)CC4)cc3F)ccnc2cc1OCCCN1CCOCC1"
val = 5.96

[[record]]
compound = "CCC1(c2ccc(N)cc2)CCC(=O)NC1=O (stereo not drawn)"
val = 111


// next item, cell viability requested
Ask: What value of measured cell viability is listed for N[S+](=O)([O-])c1cc(Cl)c(Cl)c([S+](N)(=O)[O-])c1 ?
Result: 85.8

----------
# cell viability per record follows
Test system: NOMO1
assay.text: cell viability relative to DMSO control; higher = less cytotoxic
run.parameters: RPMI 5 mM glucose + 10% dialyzed FBS; 48 h; 0.0211 µM

Study these solved cases before continuing.
[[record]]
structure_smiles = "CC\\1=C(C(=O)N(\\C=C1)C2=CC=C(C=C2)C3=NC=CO3)/C4=CC5=CN=C(N)N=C5C=C4"
assay_readout = "cell viability"
val = "119%"

[[record]]
structure_smiles = "CC(C)C[C@H](NC(=O)[C@@H](NC(=O)c1cccc(-c2ccccc2)n1)[C@@H](C)O)B(O)O"
assay_readout = "cell viability"
val = "131%"

[[record]]
structure_smiles = "CCOC(=O)[C@H](CCc1ccccc1)N[C@@H](C)C(=O)N1CCC[C@H]1C(=O)O"
assay_readout = "cell viability"
val = "122%"

[[record]]
structure_smiles = "C[C@@H]1COCCN1C\\2=C\\C(=O)N\\3CC[C@H](N(CC4=CN=CC(=C4)Cl)C3=N2)C(F)(F)F"
assay_readout = "cell viability"
val = "98.4%"

[[record]]
structure_smiles = "c1cc(CN2CCCNCCNCCCNCC2)ccc1CN1CCCNCCNCCCNCC1"
assay_readout = "cell viability"
val = "33%"

[[record]]
structure_smiles = "NC(CO)(CO)CCc1ccc(Sc2cccc(OCc3ccccc3)c2)cc1Cl"
assay_readout = "cell viability"
val = "107%"


Ask: What value of measured cell viability is listed for COC[C@@H](NC(C)=O)C(=O)NCc1ccccc1 ?
Result: 114%
